Biological target: EPHB1 (UniProt P54762)
Sequence (P54762 whole entry, looked up): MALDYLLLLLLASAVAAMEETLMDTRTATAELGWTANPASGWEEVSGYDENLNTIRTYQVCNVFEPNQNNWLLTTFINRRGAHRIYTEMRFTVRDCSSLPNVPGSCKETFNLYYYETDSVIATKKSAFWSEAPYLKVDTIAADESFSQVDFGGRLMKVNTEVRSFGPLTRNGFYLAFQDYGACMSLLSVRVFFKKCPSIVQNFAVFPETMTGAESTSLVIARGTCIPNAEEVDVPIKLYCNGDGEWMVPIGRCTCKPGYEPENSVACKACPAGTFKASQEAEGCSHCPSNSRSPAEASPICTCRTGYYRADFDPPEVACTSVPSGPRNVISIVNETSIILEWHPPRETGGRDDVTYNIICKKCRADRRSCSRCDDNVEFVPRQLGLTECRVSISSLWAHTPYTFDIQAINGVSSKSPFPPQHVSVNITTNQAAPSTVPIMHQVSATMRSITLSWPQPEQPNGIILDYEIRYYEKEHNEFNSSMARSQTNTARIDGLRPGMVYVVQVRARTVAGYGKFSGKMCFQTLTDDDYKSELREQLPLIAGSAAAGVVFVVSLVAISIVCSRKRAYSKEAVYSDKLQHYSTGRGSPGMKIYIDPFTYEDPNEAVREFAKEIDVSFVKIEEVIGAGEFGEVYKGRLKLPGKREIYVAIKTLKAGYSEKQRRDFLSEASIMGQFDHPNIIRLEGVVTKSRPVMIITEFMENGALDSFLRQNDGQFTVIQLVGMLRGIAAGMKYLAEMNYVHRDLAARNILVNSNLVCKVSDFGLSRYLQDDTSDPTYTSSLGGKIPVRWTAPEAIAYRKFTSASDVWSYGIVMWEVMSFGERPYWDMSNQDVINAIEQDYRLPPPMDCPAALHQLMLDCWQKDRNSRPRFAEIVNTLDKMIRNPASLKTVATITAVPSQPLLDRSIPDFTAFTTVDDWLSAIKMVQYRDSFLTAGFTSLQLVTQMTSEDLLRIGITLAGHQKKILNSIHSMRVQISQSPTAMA
Assay: phosphorylation enrichment, bacterial display (enrichment ratio); higher = better substrate or ligand; peptides without Tyr show the background;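 further: 11-residue human phosphosite peptides and single-mutation variants displayed on the E. coli surface, counted by deep sequencing, each peptide's frequency after selection divided by its frequency in the unselected input library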;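 further: frequency after pTyr selection over input frequency; kinase dosed for 20-30% of maximal phosphorylation in three min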
RECORDED METRIC: phosphorylation enrichment

The following sequences have reported results that may help.
INSERT INTO results (sequence_chain, data_value) VALUES
  ('ITLKGYNLSNS [GNPTAB_Y728_K732N]', 0.385),
  ('ADGLEYSRTEL [MMUT_Y287_G291E]', 0.483),
  ('PEFMVYKPQME [CCRL2_Y170_V168M]', 0.665),
  ('SLQFEYVHFGG [CDC14A_Y591_S589F_YF]', 0.612),
  ('EAEALYQTKFQ [KRT73_Y325]', 0.58);

GET /values?readout=phosphorylation enrichment&item= IHFAIYLLKFS [ARMC9_Y107_YF] 0.561

// query: FARNSYVAGQY [G6PD_Y107] 0.322

Then what about the sequence SELVRYDARVH [MET_Y971] ? 0.388

Subsequent entry: TEQDPYNNIVH [MMUT_Y364_R369H] 0.475

====

Target: Hck (UniProt P08631)
Sequence (P08631 whole entry, looked up): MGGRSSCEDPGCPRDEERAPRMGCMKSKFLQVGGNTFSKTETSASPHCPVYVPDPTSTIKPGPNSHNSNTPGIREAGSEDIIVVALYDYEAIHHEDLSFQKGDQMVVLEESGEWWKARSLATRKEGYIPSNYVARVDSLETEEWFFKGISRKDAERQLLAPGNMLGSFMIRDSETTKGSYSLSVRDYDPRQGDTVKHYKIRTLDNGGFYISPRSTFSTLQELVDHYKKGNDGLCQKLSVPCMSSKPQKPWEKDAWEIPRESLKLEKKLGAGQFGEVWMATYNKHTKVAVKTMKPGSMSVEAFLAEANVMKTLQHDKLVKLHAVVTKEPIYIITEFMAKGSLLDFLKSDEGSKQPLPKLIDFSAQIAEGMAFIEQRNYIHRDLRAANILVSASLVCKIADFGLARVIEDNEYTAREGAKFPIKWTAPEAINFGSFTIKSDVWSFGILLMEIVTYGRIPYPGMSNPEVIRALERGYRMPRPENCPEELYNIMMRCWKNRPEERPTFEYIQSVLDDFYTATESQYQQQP
Assay: phosphorylation enrichment, bacterial display (enrichment ratio); higher = better substrate or ligand; peptides without Tyr show the background
Param threshold (0.7) applies to phosphorylation enrichment; output condition met when value >= threshold, condition not met when value < threshold.

INSERT INTO assay_data (sequence_chain, group_label) VALUES
  ('CTTIHYHYMCN [TP53_Y234_N235H]', 'condition not met'),
  ('IRQGHYESLKE [MTR_Y921_D919G]', 'condition not met'),
  ('ISIFFYAKGQP [MPZ_Y82_H81Y_YF]', 'condition not met'),
  ('CTTIHYNFMGN [TP53_Y234_C238G_YF]', 'condition not met'),
  ('HNLDYYKETTN [FGFR3_Y648_K650E]', 'condition met');

// inclusive: phosphorylation enrichment at least 0.7? input: KGIQLYDTPYE [SHB_Y297] condition met

And what about the sequence GSERRYTREGG [PTPRN2_Y139_S140T] ? condition not met

Check CTLLPYYSARV [DGKE_Y269] too. condition not met

Same question for CRPPFYHRNCM [HGD_Y334_F329C_YF] please. condition not met

Input PSRKDYETYQS [CTNND2_Y1154_P1159S] condition met

Try RAILLYEYVGK [NATD1_Y45_V42I] next. condition met

Follow-up item: RHPLDYLRQYP [NARS2_Y138_E137D] condition met

Next sequence up: RQQEDYLLFKQ [RARRES1_Y159_YF] condition met

====

Test system: c-Abl (mouse)
Assay: phosphorylation enrichment, bacterial display (enrichment ratio); higher = better substrate or ligand; peptides without Tyr show the background
RECORDED METRIC: phosphorylation enrichment
Hey, just send me the number, nothing else.

INSERT INTO measurements (sequence_chain, target_desc, data_value) VALUES
  ('LKMLVYMDMSK [LRRC7_Y234_L235M]', 'c-Abl (mouse)', 1.23),
  ('FGGTVCHSPVS [PRC1_Y511_Y511C]', 'c-Abl (mouse)', 0.548);

Requested field: phosphorylation enrichment. Item: NKFVAYIESQG [KDM4B_Y34_YF] 0.611

Try TDIVAYSGRVQ [SPTBN2_Y477] next. 1.13

How about IKNSGYISRFL [EIF2AK3_Y585_YF] ? 0.537

What do you get for PVDVAYRHGFF [PLEC_Y2967_R2969H_YF] ? 0.473

Queued: PNLILYGDFRQ [MYH7_Y715_R712L] 0.766

Another: AEEKEYHAEEG [EGFR_Y869_G873E] 0.84

Also need KQNSLYSFSDH [CCDC82_Y331] , thanks. 0.691

What about this sequence? SFMVRYNQPRV [GRIN2D_Y736_YF] 0.582
